experiment-notes: Tmax in HIV1 infected human at 20 mg administered once every 48 hrs for 21 days in presence of 400 mg of Lopinavir and 100 mg of itonavir administered once every 12 hrs
Type: ADME, organism-based
assay-setup: in vivo
experimental-endpoint: Tmax (h)
Numeric answer only, unit h assumed.

Output Tmax of Nc1nc(=O)n([C@@H]2C=C[C@H](CO)O2)cc1F
4

###

experiment-notes: Drug level in HIV1 infected human plasma at 20 mg after 24 hrs in presence of 400 mg of Lopinavir and 100 mg of itonavir administered once every 12 hrs
Type: ADME
assay-setup: read-out: Drug uptake
experimental-endpoint: concentration at 24 h
Write the numeric value and append its unit.

Output concentration at 24 h of Nc1nc(=O)n([C@@H]2C=C[C@H](CO)O2)cc1F [ELVUCITABINE]
3.41 ng/mL

###

experiment-notes: Tmax in HIV1 infected human at 5 mg qd for 21 days in presence of 400 mg of Lopinavir and 100 mg of itonavir administered once every 12 hrs
Assay type: ADME, organism-based
assay-setup: in vivo
experimental-endpoint: Tmax (h)
Numeric answer only, unit h assumed.

Output Tmax of Nc1nc(=O)n([C@@H]2C=C[C@H](CO)O2)cc1F
7

###

experiment-notes: Drug level in HIV1 infected human plasma at 10 mg after 24 hrs presence of 400 mg of Lopinavir and 100 mg of itonavir
Format: ADME, organism-based
assay-setup: read-out: Drug uptake
experimental-endpoint: concentration at 24 h (ng/mL)
Numeric answer only, unit ng/mL assumed.

Output concentration at 24 h of Nc1nc(=O)n([C@@H]2C=C[C@H](CO)O2)cc1F
1.87

###

experiment-notes: AUC (0 to 24 hrs) in HIV1 infected human at 10 mg qd for 21 days in presence of 400 mg of Lopinavir and 100 mg of itonavir administered once every 12 hrs
Assay type: ADME, organism-based
Parameters: dose 10 mg, time < 24 hr
assay-setup: plasma
experimental-endpoint: AUC at 24 h (ng·h/mL)
Numeric answer only, unit ng·h/mL assumed.

Output AUC at 24 h of Nc1nc(=O)n([C@@H]2C=C[C@H](CO)O2)cc1F
435

###

experiment-notes: Drug level in HIV1 infected human plasma at 5 mg qd for 21 days in presence of 400 mg of Lopinavir and 100 mg of itonavir administered once every 12 hrs
Type: ADME, organism-based
assay-setup: read-out: Drug uptake
experimental-endpoint: concentration at 21 days (ng/mL)
Numeric answer only, unit ng/mL assumed.

Output concentration at 21 days of Nc1nc(=O)n([C@@H]2C=C[C@H](CO)O2)cc1F
4.38

###

experiment-notes: Tmax in HIV1 infected human at 20 mg after 24 hrs in presence of 400 mg of Lopinavir and 100 mg of itonavir administered once every 12 hrs
Assay type: ADME, organism-based
assay-setup: in vivo
experimental-endpoint: Tmax (h)
Numeric answer only, unit h assumed.

Output Tmax of Nc1nc(=O)n([C@@H]2C=C[C@H](CO)O2)cc1F [ELVUCITABINE]
3.75

###

experiment-notes: Cmax in HIV1 infected human at 5 mg qd for 21 days in presence of 400 mg of Lopinavir and 100 mg of itonavir administered once every 12 hrs
Format: ADME, organism-based
Parameters: dose 5 mg
assay-setup: in vivo
experimental-endpoint: Cmax (ng/mL)
Numeric answer only, unit ng/mL assumed.

Output Cmax of Nc1nc(=O)n([C@@H]2C=C[C@H](CO)O2)cc1F
23.1

###

experiment-notes: Half life in HIV1 infected human at 5 mg qd for 21 days in presence of 400 mg of Lopinavir and 100 mg of itonavir administered once every 12 hrs
Type: ADME, organism-based
assay-setup: in vivo
experimental-endpoint: half-life (h)
Numeric answer only, unit h assumed.

Output half-life of Nc1nc(=O)n([C@@H]2C=C[C@H](CO)O2)cc1F [ELVUCITABINE]
92.5

###

experiment-notes: Oral bioavailability in HIV1 infected human at 20 mg after 24 hrs
Format: ADME, organism-based
assay-setup: in vivo
experimental-endpoint: bioavailability (%)
Numeric answer only, unit % assumed.

Output bioavailability of Nc1nc(=O)n([C@@H]2C=C[C@H](CO)O2)cc1F
55.4

###

experiment-notes: AUC (0 to 24 hrs) in HIV1 infected human at 20 mg after 24 hrs in presence of 400 mg of Lopinavir and 100 mg of itonavir administered once every 12 hrs
Type: ADME, organism-based
Set-up: time < 24 hr, dose 20 mg
assay-setup: plasma
experimental-endpoint: AUC at 24 h (ng·h/mL)
Numeric answer only, unit ng·h/mL assumed.

Output AUC at 24 h of Nc1nc(=O)n([C@@H]2C=C[C@H](CO)O2)cc1F
262

All values here come from ChEMBL document CHEMBL1629600.
